Recorded values, source patent US5254571A.

pIC50: −log10 of the molar value.
pIC50, calmodulin insensitive cyclic GMP phosphodiesterase (Homo sapiens, UniProt O76074), per-entry values.

- Molecule smiles: "CCCOc1ccccc1-c1ccc(C#N)c(=O)[nH]1"
  Endpoint: "pIC50"
  Endpoint result: "4.52 to 5.77"

Now for the compound whose pIC50 we want.
Data request: Find pIC50 for CCCOc1ccccc1-c1ccc([N+](=O)[O-])c(=O)[nH]1 on calmodulin insensitive cyclic GMP phosphodiesterase (Homo sapiens, UniProt O76074) and write it down.
Data returned: 4.52 to 5.77

* * *

test system: U46619-induced bronchoconstriction; test: Bronchodilatation in vivo: inhibition of U46619-induced bronchoconstriction in anaesthetised guinea-pigs; set-up: species or system guinea-pig (male, Dunkin Hartley); conditions: Cavia porcellus, iv, U46619 infused i.v. 2.5 nmol/min, compound i.v. bolus, peak inhibition, read-out: BD50 (dose required to reduce the U46619-induced bronchoconstriction by 50%)
Endpoint: ED50 (µmol/kg)
Numbers only; they are read as µmol/kg.

The following molecules have reported results that may help.
- Molecule: "CCCOc1ccccc1-c1cc(C)c(C#N)c(=O)[nH]1 [Example 11]"
  ED50 [µmol/kg]: 2.3
- Molecule: "CCCOc1ccccc1-c1ccc(C#N)c(=O)[nH]1 [Example 1]"
  ED50 [µmol/kg]: 10
- Molecule: "CCCOc1ccccc1-c1ccc(C(=O)O)c(=O)[nH]1 [Example 3]"
  ED50 [µmol/kg]: 10.6
- Molecule: "CCCOc1ccccc1-c1ccc([N+](=O)[O-])c(=O)[nH]1 [Example 7]"
  ED50 [µmol/kg]: 7.7

Now for the molecule whose ED50 we want.
Data request: Check the records and state ED50 for CCCOc1ccccc1-c1ccc(C(N)=O)c(=O)[nH]1 [Example 2]
Data returned: 1.1

* * *

pIC50: −log10 of the molar value.
pIC50, calmodulin insensitive cyclic GMP phosphodiesterase (Homo sapiens, UniProt O76074), per-entry values.

- Molecule smiles: "CCCOc1ccccc1-c1cc(C)c(C#N)c(=O)[nH]1"
  Endpoint result: "4.52 to 5.77"

Data request: Find pIC50 for CCCOc1ccccc1-c1[nH]c(=O)c(C#N)cc1C on calmodulin insensitive cyclic GMP phosphodiesterase (Homo sapiens, UniProt O76074) and write it down.
Data returned: 4.52 to 5.77

Data request: Find pIC50 for CCCOc1ccccc1-c1ccc(C(N)=O)c(=O)[nH]1 on calmodulin insensitive cyclic GMP phosphodiesterase (Homo sapiens, UniProt O76074) and write it down.
Data returned: 4.52 to 5.77
